The reported numbers originate from patent US20210330611A1.

System: primary rat microglia
condition info: rat
We begin with a simple list: items and their reported Fibrin % cell toxicity.
# output: number + unit

The examples below pair each entry with its known result.
CC1CCc2c(N3CCC(O)CC3)c(F)cc3c(=O)c(C(=O)O)cn1c23 (stereo not drawn)	1%
CC[N+](C)(C)Cc1ccccc1Br	0%
C[C@@H](O)[C@H]1C(=O)N2C(C(=O)O)=C(SCCN=CN)C[C@H]12 [Imipenem, reference compound]	1%
CC(C)(O)c1ccccc1CC[C@@H](SCC1(CC(=O)O)CC1)c1cccc(/C=C/c2ccc3ccc(Cl)cc3n2)c1 [Montelukast Sodium]	1%
Clc1cccc(Cl)c1N=C1NCCN1	1%

input: Fibrin % cell toxicity for CC(C)COCC(CN(Cc1ccccc1)c1ccccc1)N1CCCC1 (stereo not drawn) ?
output: 1%

input: Try this compound too: "O=C(c1ccc(OCCN2CCCCC2)cc1)c1c(-c2ccc(O)cc2)sc2cc(O)ccc12"
output: 0%

input: Please give the result for Clc1ccc(CSC(Cn2ccnc2)c2ccc(Cl)cc2Cl)cc1 (stereo not drawn) too.
output: 1%

input: Another compound: CC(C)(Oc1ccc(C2CC2(Cl)Cl)cc1)C(=O)O (stereo not drawn) [Ciprofibrate]
output: 0%

---

Tested on: primary rat microglia
protocol summary: Cell toxicity (dead cells, size <150 μm2) in LPS assay
condition info: primary microglia HTS, LPS stimulation; decreased size (<150 μm^2) as marker of toxicity
Where a name gives a salt, the structure may show the parent alone.
recorded endpoint: LPS % cell toxicity
Number first, unit second: that is the form wanted.

CN1C(C(=O)Nc2ccccn2)=C(O)c2sc(Cl)cc2S1(=O)=O	1%
COc1ccc(-n2nc(CCC(=O)N(C)O)cc2-c2ccc(Cl)cc2)cc1 [Tepoxalin, reference compound]	2%

input: Query for primary rat microglia: what LPS % cell toxicity does the record show for "C[C@@H](O)[C@H]1C(=O)N2C(C(=O)O)=C(S[C@@H]3CN[C@H](C(=O)N(C)C)C3)[C@H](C)[C@H]12" ?
output: 0%

input: Okay, and COC(=O)C(N)CS (centres unmarked) [Mecysteine Hydrochloride] ?
output: 0%

input: What about this compound? COc1c(C)c2c(c(O)c1C/C=C(\C)CCC(=O)O)C(=O)OC2 [Mycophenolic acid, reference compound]
output: 2%

input: Similarly, "CCCCCCCC/C=C\CCCCCCCC(=O)O" ?
output: 1%

input: Query CCCCCCc1ccc(O)cc1O.Nc1c2ccccc2nc2ccccc12 [Acrisorcin, reference compound] next
output: 52%

input: Now this one: "OC[C@@H](O)[C@@H](O)[C@H](O)[C@H](O)CO"
output: 0%

---

System: fibrin-induced microglia activation
protocol summary: Image-based assay of fibrin-induced microglia activation (HTS and dose response)
Type: cell-based, rat
condition info: Rattus norvegicus, Microglia, primary microglia HTS, fibrin stimulation; increased cell size (>800 μm^2) as marker of activation; read-out: Fibrin % inhibition
Counter-ions that a name gives are not always drawn.
Short version: inhibition at 10 µM at least 40% is Satisfied, less is Not satisfied.

Some solved entries appear below for comparison.
CC[N+](C)(CC)CCOC(=O)C(O)(c1ccccc1)C1CCCCC1 (centres unmarked)	Not satisfied
COc1ccc(-n2nc(CCC(=O)N(C)O)cc2-c2ccc(Cl)cc2)cc1 [Tepoxalin, reference compound]	Satisfied
CC(CCc1ccc(O)cc1)NCC(O)c1ccc(O)cc1 (centres unmarked) [Ractopamine hydrochloride, reference compound]	Satisfied
Cc1[nH]c(=O)c(C#N)cc1-c1ccncc1	Not satisfied

input: Hello, I need to know if NC(=O)NC(=O)Cc1ccccc1 [Phenacemide] has measured inhibition at 10 µM not below 40%. Thanks!
output: Not satisfied

input: What about this compound? NCCc1cc(O)c(O)cc1O [Oxidopamine Hydrochloride]
output: Not satisfied

input: And what about the compound CN1CCN(CCCN2c3ccccc3Sc3ccc(C(F)(F)F)cc32)CC1 [Trifluoperazine dihydrochloride, reference compound] ?
output: Satisfied

input: Then this compound: N=C(N)/N=C(\N)N1CCOCC1 [Moroxydine Hydrochloride]
output: Not satisfied

input: Also, Cc1cccc(C)c1NC(=O)c1ccccc1C(=O)O [Ftaxilide, reference compound] please.
output: Satisfied

input: And the next one, CCCCC(=O)O[C@]1(C(=O)CO)[C@@H](C)C[C@H]2[C@@H]3CCC4=CC(=O)C=C[C@]4(C)[C@@]3(F)[C@@H](O)C[C@@]21C [Betamethasone valerate, reference compound] ?
output: Satisfied
